All values here come from patent US11813306B2.

// reported Max % inhibition per item
- Tested System: UniProt Q8NBP7
- Method: PCSK9 ligand binding assay (TR-FRET): interference with binding of human PCSK9 to human LDLR
- Experimental Conditions: efficacy (Amax), 100% = 1 uM unlabeled human PCSK9, 0% = DMSO
Counter-ions that a name gives are not always drawn.
Measured Metric: Max % inhibition

Molecule: COC[C@@H]1NC(=O)[C@H](C)N(Cc2ccc(Cl)cc2Oc2ccc(-c3cnc(CNC(C)(C)C)n3C)cc2)C(=O)C[C@@H](CC(F)(F)F)C(=O)N2CCC[C@@](Cc3ccc(Cl)cc3)(C2)NC1=O
Measured: 119.9%
--
Molecule: CNCc1ncc(-c2ccc(Oc3cc(Cl)cc(F)c3CN3C(=O)C[C@@H](CC(F)(F)F)C(=O)N4CCC[C@@](Cc5ccc(Cl)cc5)(C4)N(C)C(=O)[C@H](CO)NC(=O)[C@@H]3C)cc2)n1C [Compound 177, trifluoroacetate]
Measured: 108.8%
--
Molecule: C[C@H]1C(=O)N[C@@H](CO)C(=O)N(C)[C@H](Cc2ccc(Cl)cc2)CN(C)C(=O)[C@H](Cc2ccccc2)CC(=O)N1Cc1ccc(Cl)cc1Oc1cc(F)c(-c2cnc(CN3CCCC3)n2C)c(F)c1.Cl
Measured: 105.1%
--
Molecule: CC[C@@H]1CC(=O)N(Cc2c(OCC(F)(F)F)cc(Cl)cc2Oc2ccc(-c3cnc(CN4CCCC4)n3C)cc2)[C@@H](C)C(=O)N[C@@H](CO)C(=O)N(C)[C@H](Cc2ccc(Cl)cc2)CNC1=O.Cl
Measured: 98.8%

* * *

- Tested System: human PCSK9 (Homo sapiens)
- Method: PCSK9 ligand binding assay (TR-FRET): interference with binding of human PCSK9 to human LDLR
- Experimental Conditions: efficacy (Amax), 100% = 1 uM unlabeled human PCSK9, 0% = DMSO

Test Smiles: CC[C@@H]1CC(=O)N(Cc2ccc(Cl)cc2Oc2ccc(-c3cnc(CN4CCCC4)n3C)cc2)[C@@H](C)C(=O)N[C@@H](CO)C(=O)N(C)[C@H](Cc2ccc(Cl)cc2)CN(C)C1=O.Cl
Max % inhibition / %: 89.8
//
Test Smiles: C[C@H]1C(=O)N[C@@H](CO)C(=O)N[C@@]2(Cc3ccc(Cl)cc3)CCCN(C2)C(=O)[C@H](CC2CC2)CC(=O)N1Cc1c(F)cc(Cl)cc1Oc1ccc(-c2cnc(CN3CCCC3)n2C)cc1
Max % inhibition / %: 115.5
//
Test Smiles: C[C@H]1C(=O)N[C@@H](COC(F)F)C(=O)N(C)[C@@]2(Cc3ccc(Cl)cc3)CCCN(C2)C(=O)[C@H](CC(F)(F)F)CC(=O)N1Cc1c(F)cc(Cl)cc1Oc1ccc(-c2cnc(CN(C)C)n2C)cc1
Max % inhibition / %: 114.7
//
Test Smiles: C[C@H]1C(=O)N[C@@H](CO)C(=O)N[C@@]2(Cc3ccc(Cl)cc3)CCCN(C2)C(=O)[C@H](Cc2cccnc2)CC(=O)N1Cc1ccc(Cl)cc1Oc1ccc(-c2cnc(CN(C)C)n2C)cc1.Cl
Max % inhibition / %: 105.3
//
Test Smiles: C[C@H]1C(=O)N[C@@H](CO)C(=O)N(C)[C@H](Cc2ccc(Cl)cc2)CNC(=O)[C@H](Cc2ccccc2)CC(=O)N1Cc1ccc(Cl)cc1Oc1ccc(-c2cnc(CN3CCCC3)n2C)cc1.Cl
Max % inhibition / %: 104.5

* * *

// reported IC50 per item
- Tested System: human PCSK9 (Homo sapiens, UniProt Q8NBP7)
- Sequence (Q8NBP7 153-692): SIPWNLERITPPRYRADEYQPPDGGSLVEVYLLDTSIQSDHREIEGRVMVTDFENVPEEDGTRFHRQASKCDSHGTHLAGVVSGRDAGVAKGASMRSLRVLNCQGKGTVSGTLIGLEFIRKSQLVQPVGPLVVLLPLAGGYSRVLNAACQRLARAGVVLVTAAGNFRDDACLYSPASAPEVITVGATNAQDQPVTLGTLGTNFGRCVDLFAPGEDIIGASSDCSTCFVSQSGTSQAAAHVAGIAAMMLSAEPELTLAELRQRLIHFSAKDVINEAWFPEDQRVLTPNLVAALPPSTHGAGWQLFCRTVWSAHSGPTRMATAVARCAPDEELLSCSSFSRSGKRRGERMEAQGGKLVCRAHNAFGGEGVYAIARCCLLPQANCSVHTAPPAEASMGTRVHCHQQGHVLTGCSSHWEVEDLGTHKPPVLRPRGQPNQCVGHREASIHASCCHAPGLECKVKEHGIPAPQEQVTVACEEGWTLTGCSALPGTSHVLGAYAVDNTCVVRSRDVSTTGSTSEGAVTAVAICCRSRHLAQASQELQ
- Sequence (Q8NBP7 31-152 partner limits assumed): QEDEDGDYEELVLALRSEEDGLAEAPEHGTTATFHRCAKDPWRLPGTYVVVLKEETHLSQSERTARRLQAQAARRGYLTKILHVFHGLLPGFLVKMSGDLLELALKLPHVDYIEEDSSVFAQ
- Method: PCSK9 ligand binding assay (TR-FRET): interference with binding of human PCSK9 to human LDLR
- Experimental Conditions: Human PCSK9 Alexa Fluor 647 / Human LDLR extracellular domain-Europium Kryptate
Measured Metric: IC50 (nM)

Test Smiles: C[C@H]1C(=O)N[C@@H](CO)C(=O)N(C)[C@H](Cc2ccc(Cl)cc2)CNC(=O)[C@H](Cc2ccccc2)CC(=O)N1Cc1ccc(Cl)cc1Oc1ccc(-c2cnc(CN3CCCC3)n2C)cc1.Cl
Measured: 1.51
//
Test Smiles: CNCc1ncc(-c2ccc(Oc3cc(Cl)ccc3CN3C(=O)C[C@@H](Cc4ccccc4)C(=O)N4CCC[C@@](Cc5ccc(Cl)cc5)(C4)NC(=O)[C@H](CO)NC(=O)[C@@H]3C)cc2)n1C
Measured: 0.85
//
Test Smiles: C[C@H]1C(=O)N[C@@H](CO)C(=O)N[C@@]2(Cc3ccc(Cl)cc3)CCCN(C2)C(=O)[C@H](CC2(C)CC2)CC(=O)N1Cc1c(F)cc(Cl)cc1Oc1ccc(-c2cnc(CN(C)C)n2C)cc1
Measured: 3.96
//
Test Smiles: COC[C@@H]1NC(=O)[C@H](C)N(Cc2c(F)cc(Cl)cc2Oc2ccc(-c3cnc(CN(C)C)n3C)cc2)C(=O)C[C@@H](C2CCOCC2)C(=O)N2CCC[C@@](Cc3ccc(Cl)cc3)(C2)N(C)C1=O
Measured: 2.2
//
Test Smiles: CC[C@@H]1CC(=O)N(Cc2c(F)cc(Cl)cc2Oc2ccc(-c3cnc(CN(C)C)n3C)cc2)[C@@H](C)C(=O)N[C@@H](COC)C(=O)N[C@@]2(Cc3ccc(Cl)cc3)CCCN(C2)C1=O
Measured: 0.851

* * *

// reported Max % inhibition per item
- Tested System: human PCSK9 (Homo sapiens)
- Method: PCSK9 ligand binding assay (TR-FRET): interference with binding of human PCSK9 to human LDLR
- Experimental Conditions: efficacy (Amax), 100% = 1 uM unlabeled human PCSK9, 0% = DMSO

Molecule: CCOCCOCCOCc1ncc(-c2ccc(Oc3cc(Cl)ccc3CN3C(=O)N[C@@H](Cc4ccccc4)C(=O)N4CCC[C@@](Cc5ccc(Cl)cc5)(C4)NC(=O)[C@H](CO)NC(=O)[C@@H]3C)cc2)n1C.Cl [Compound 104]
Max % inhibition (%): 69.1
//
Molecule: COC[C@@H]1NC(=O)[C@H](C)N(Cc2c(F)cc(Cl)cc2Oc2ccc(-n3cnc(CN4CCCC4)c3C)cc2)C(=O)C[C@@H](Cc2ccccc2)C(=O)N2CCC[C@@](Cc3ccc(Cl)cc3)(C2)NC1=O [Compound 39]
Max % inhibition (%): 113.2
//
Molecule: COC[C@H]1NC(=O)[C@H](C)N(Cc2ccc(Cl)cc2Oc2ccc(-c3cnc(CN(C)C)n3C)nc2)C(=O)C[C@@H](Cc2ccccc2)C(=O)N2CCC[C@@](Cc3ccc(Cl)cc3)(C2)NC1=O [Compound 122]
Max % inhibition (%): 96.9
//
Molecule: C[C@H]1C(=O)N[C@@H](CO)C(=O)N[C@@]2(Cc3ccc(Cl)cc3)CCCN(C2)C(=O)[C@H](CC2CC2)CC(=O)N1Cc1ccc(Cl)cc1Oc1ccc(-c2cnc(CNC(C)(C)C)n2C)cc1 [Compound 148]
Max % inhibition (%): 111.9
//
Molecule: COC[C@@H]1NC(=O)[C@H](C)N(Cc2ccc(Cl)cc2Oc2ccc(-c3cnc(CN(C)C)n3C)cc2)C(=O)C[C@@H](Cc2ccccc2)C(=O)N2CCC[C@@](Cc3ccc(Cl)cc3)(C2)N(C)C1=O [Compound 65]
Max % inhibition (%): 109.2
//
Molecule: C[C@H]1C(=O)N[C@@H](CO)C(=O)N(C)[C@@]2(Cc3ccc(Cl)cc3)CCCN(C2)C(=O)[C@H](Cc2ccccc2)CC(=O)N1Cc1ccc(Cl)cc1Oc1ccc(-c2cnc(CN(C)C)n2C)nc1 [Compound 71]
Max % inhibition (%): 102.6
//
Molecule: COC[C@@H]1NC(=O)[C@H](C)N(Cc2ccc(Cl)cc2Oc2ccc(-c3cnc(CN4CCCC4)n3C)cc2)C(=O)C[C@@H](N(C)C)C(=O)N(C)C[C@@H](Cc2ccc(Cl)cc2)N(C)C1=O.Cl [Compound 134]
Max % inhibition (%): 93.6
//
Molecule: C[C@H]1C(=O)N[C@@H](CO)C(=O)N[C@@]2(Cc3ccc(Cl)cc3)CCCN(C2)C(=O)[C@H](Cc2ccc(C(F)(F)F)cc2)CC(=O)N1Cc1ccc(Cl)cc1Oc1ccc(-c2cnc(CN(C)C)n2C)cc1 [Compound 62]
Max % inhibition (%): 110.7
//
Molecule: C[C@H]1C(=O)N[C@@H](CO)C(=O)N[C@@]2(Cc3ccc(Cl)cc3)CCCN(C2)C(=O)[C@H](Cc2ccccc2)CC(=O)N1Cc1ccc(Cl)c(F)c1Oc1ccc(-c2cnc(CN(C)C)n2C)cc1 [Compound 25]
Max % inhibition (%): 100.8
//
Molecule: C[C@H]1C(=O)N[C@@H](CO)C(=O)N[C@@]2(Cc3ccc(Cl)cc3)CCCN(C2)C(=O)[C@H](Cc2c(F)cc(F)cc2F)CC(=O)N1Cc1ccc(Cl)cc1Oc1ccc(-c2cnc(CN(C)C)n2C)cc1 [Compound 46]
Max % inhibition (%): 112.3
//
Molecule: C[C@H]1C(=O)N[C@@H](CO)C(=O)N[C@@]2(Cc3ccc(Cl)cc3)CCCN(C2)C(=O)[C@H](Cc2ccccc2)CC(=O)N1Cc1cc(F)c(Cl)cc1Oc1ccc(-c2cnc(CN(C)C)n2C)cc1 [Compound 54]
Max % inhibition (%): 109.4
//
Molecule: COC[C@@H]1NC(=O)[C@H](C)N(Cc2c(F)cc(Cl)cc2Oc2ccc(-c3cnc(CN(C)C)n3C)cc2)C(=O)C[C@@H](Cc2cccc(C)n2)C(=O)N2CCC[C@@](Cc3ccc(Cl)cc3)(C2)N(C)C1=O [Compound 13]
Max % inhibition (%): 112.1
//
Molecule: C[C@H]1C(=O)N[C@@H](CO)C(=O)N(C)[C@@]2(Cc3ccc(Cl)cc3)CCCN(C2)C(=O)[C@@H](CC(F)(F)F)CC(=O)N1Cc1c(F)cc(Cl)cc1Oc1ccc(-c2cnc(CN(C)C)n2C)cc1 [Compound 151]
Max % inhibition (%): 107.5
//
Molecule: C[C@H](O)[C@@H]1NC(=O)[C@H](C)N(Cc2ccc(Cl)cc2Oc2ccc(-c3cnc(CN(C)C)n3C)cc2)C(=O)C[C@@H](CC(F)(F)F)C(=O)N2CCC[C@@](Cc3ccc(Cl)cc3)(C2)NC1=O [Compound 64]
Max % inhibition (%): 99.7
//
Molecule: COC[C@@H]1NC(=O)[C@H](C)N(Cc2c(F)cc(Cl)cc2Oc2ccc(-c3cnc(CN(C)C)n3C)nc2)C(=O)C[C@@H](CC(F)(F)F)C(=O)N2CCC[C@@](Cc3ccc(Cl)cc3)(C2)NC1=O [Compound 8]
Max % inhibition (%): 104.7
//
Molecule: COC[C@@H]1NC(=O)[C@H](C)N(Cc2ccc(Cl)cc2Oc2ccc(-c3cnc(CN(C)C)n3C)nc2)C(=O)C[C@@H](Cc2ccccc2)C(=O)N2CCC[C@@](Cc3ccc(Cl)cc3)(C2)N(C)C1=O [Compound 27]
Max % inhibition (%): 111.0
//
Molecule: C[C@H]1C(=O)N[C@@H](CO)C(=O)N[C@@]2(Cc3ccc(Cl)cc3)CCCN(C2)C(=O)[C@H](CC(F)(F)F)CC(=O)N1Cc1ccc(Cl)cc1Oc1ccc(-c2cnc(CNC(C)(C)C)n2C)cc1 [Compound 147]
Max % inhibition (%): 110.6
//
Molecule: C[C@H]1C(=O)N[C@@H](CO)C(=O)N(C)[C@@]2(Cc3ccc(Cl)cc3)CCCN(C2)C(=O)[C@H](Cc2ccccn2)CC(=O)N1Cc1ccc(Cl)cc1Oc1ccc(-c2cnc(CN(C)C)n2C)cc1 [Compound 18]
Max % inhibition (%): 104.5
